- Test system: NCI-H460 lung
- assay.method.text: NCI-60 one-dose screen, 48 h (100 = growth as untreated, 0 = no growth, -100 = all killed)
- condition.context: 10 µM unless noted
This is part of a sample that, as a whole, favours compounds with a hit. Of some 83,000 tested, about 20% had one in any assay. The source made the active and inactive calls. How the source made its calls: active means growth percent below 10; inactive means the rest.
Catalogue of compounds with associated growth

Cc1ccc(C(=O)NN2C(=O)CSC2c2ccc(Cl)cc2)cn1 (stereo not drawn) ... 101% (inactive)
OC(COc1ccccc1)CN1CCN(c2ccc(Cl)cc2)CC1 (stereo not drawn) ... 105% (inactive)
Nc1nc2ccccc2c2c(=O)c3cc(F)ccc3sc12 ... 103% (inactive)
Cc1cc(Cl)ccc1NS(=O)(=O)c1ccc(-c2cnc(C3CC3)o2)cc1 ... 12.2% (inactive)
O=C(Nc1nc2ccc(F)cc2s1)c1cccnc1Nc1ccc(Cl)cc1Cl ... 5.22% (active)
COc1cc(C(=O)c2cc(C)c3[nH]c4ccc(O)cc4c3c2C)cc(OC)c1OC ... 8.93% (active)
CCCCCCn1c(-c2ccc(C(=O)O/N=C(\N)c3ccc(OC)cc3)cc2)nc(-c2ccccc2)c1-c1ccccc1 ... -10.3% (active)
CS(=O)(=O)N(c1cc(-c2ccc3ncnc(Nc4ccc(F)c(Cl)c4)c3c2)cnc1Cl)S(C)(=O)=O ... 34.2% (inactive)

Ask: Recorded growth of Oc1ccc(-c2nc3ccc4[nH]ncc4c3c3c2CCCC3)c2cccnc12 , please.
Result: -21.7% (active)

Ask: Recorded growth of Cc1cc(N2CCCC2)nc(N(CCCNc2ccnc3cc(Cl)ccc23)Cc2ccccn2)n1 , please.
Result: 35.6% (inactive)

Ask: Recorded growth of Cc1nc2nc(SCC(=O)O)[nH]c2c(=O)[nH]1 , please.
Result: 104% (inactive)

Ask: Recorded growth of c1ccc(-c2nc3nonc3nc2-c2ccccc2)cc1 , please.
Result: 62.8% (inactive)

Ask: Recorded growth of CCOC(=O)C1=C(N)Oc2c(sc3c(CC)cccc23)C1c1ccc(F)cc1 (stereo not drawn) , please.
Result: 17% (inactive)
